A collection of compounds and their measured inhibition
# TARGET UNDER TEST: Amyloid-beta precursor protein (Homo sapiens) (UniProt P05067)
# Sequence (P05067 whole entry): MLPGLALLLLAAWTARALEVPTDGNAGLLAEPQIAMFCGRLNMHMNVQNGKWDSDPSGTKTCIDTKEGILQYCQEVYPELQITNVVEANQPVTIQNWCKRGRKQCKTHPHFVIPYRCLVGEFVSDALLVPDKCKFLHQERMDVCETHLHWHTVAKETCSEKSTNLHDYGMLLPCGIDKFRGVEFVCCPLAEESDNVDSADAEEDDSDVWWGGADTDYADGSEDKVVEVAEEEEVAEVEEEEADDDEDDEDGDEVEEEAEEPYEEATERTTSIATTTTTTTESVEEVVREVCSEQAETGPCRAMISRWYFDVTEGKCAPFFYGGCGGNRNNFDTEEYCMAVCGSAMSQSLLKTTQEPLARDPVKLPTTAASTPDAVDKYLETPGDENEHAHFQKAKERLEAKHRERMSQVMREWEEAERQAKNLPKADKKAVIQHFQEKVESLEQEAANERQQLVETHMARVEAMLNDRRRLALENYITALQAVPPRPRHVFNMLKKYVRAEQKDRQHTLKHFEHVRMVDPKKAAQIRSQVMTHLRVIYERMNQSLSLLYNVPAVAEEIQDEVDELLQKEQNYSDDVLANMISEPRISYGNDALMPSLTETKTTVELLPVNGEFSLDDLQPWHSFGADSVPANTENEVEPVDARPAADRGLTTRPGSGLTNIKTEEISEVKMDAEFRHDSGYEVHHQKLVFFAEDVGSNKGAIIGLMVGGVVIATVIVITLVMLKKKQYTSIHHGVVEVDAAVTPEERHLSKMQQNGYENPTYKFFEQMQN
# MEASUREMENT PROTOCOL: Inhibition of Amyloid beta (1 to 42) (unknown origin) self aggregation at 20 uM for 24 hrs by Thioflavin T-based fluorometric assay
Unit % implied. Number only.

COc1cc(OC)cc([C@@H]2CC(=O)N(Cc3ccccc3)[C@H](c3ccc(O)cc3)[C@H]2[N+](=O)[O-])c1 (racemic) = 55
COc1cccc(CN2C(=O)C[C@@H](c3ccccc3)[C@H]([N+](=O)[O-])[C@H]2c2ccc(O)cc2)c1 (racemic) = 51.7
COC(=O)c1ccc(CN2C(=O)C[C@@H](c3ccccc3Cl)[C@H]([N+](=O)[O-])[C@H]2c2ccc(O)cc2)cc1 (racemic) = 33.1

Read the next record carefully.
Task item: Hello, please tell me recorded inhibition for this one: COC(=O)c1ccc(CN2C(=O)C[C@@H](c3ccccc3)[C@H]([N+](=O)[O-])[C@H]2c2ccc(O)cc2)cc1 (racemic)
Reply: 36.3
